system: IGROV1 ovarian; assay: NCI tumour cell line growth inhibition, 48 h
observable: TGI

compound | TGI
Nc1nc(Cl)c(C=O)c(NCC2(CO)CC(CCc3ccccc3)C2)n1 (stereo not drawn) | 3.48 µM
Cc1nc(-c2ccccc2)c(C)n2c1nc1ccccc12 | > 100 µM
O/N=C1\CCc2cc(-c3nc(C4CCNCC4)[nH]c3-c3ccncc3)ccc21 | > 25 µM
O=C1C(C(O)(C(F)(F)Cl)C(F)(F)Cl)CCC1C(O)(C(F)(F)Cl)C(F)(F)Cl (stereo not drawn) | > 10 µM
CC(=O)c1ccc(Nc2cc(-n3ccnc3)nc3ccccc23)cc1 | > 100 µM

Please state TGI for every compound in the list that follows.
1. O=S(=O)(c1ccc(NC(=S)N/N=C/c2ccccc2O)cc1)N1CCCCC1
2. Cc1cc2nc(N3C(=O)/C(=C/c4cccc([N+](=O)[O-])c4)N=C3c3ccccc3)sc2cc1C
3. O=C(c1cccs1)c1c(C(F)(F)F)n([O-])c2ccc(C(F)(F)F)cc2[n+]1=O

> 50.4 µM
> 100 µM
0.278 µM

----------
test system: OVCAR-4 ovarian; experiment: NCI tumour cell line growth inhibition, 48 h
What TGI was measured for each of the following?
Numbers only, in µM.

molecule | TGI, µM
O=[N+]([O-])c1ccc(Sc2ncccn2)c([N+](=O)[O-])c1 | 13.5

Please state TGI for every molecule in the list that follows.
1. CN(C)CCOc1ccc(I)cc1Cc1ccccc1
2. COc1ccccc1/C=C1\Sc2scc(-c3cccc([N+](=O)[O-])c3)[n+]2C1=O
3. COc1cc([C@@H]2c3cc4c(cc3[C@H](OC3OC5COC(C(C)C)OC5C(O)C3O)C3COC(=O)[C@@H]32)OCO4)cc(OC)c1O (some centres undefined)

1: 24.6; 2: 43.2; 3: 37.6

Which TGI reading was recorded for the molecule CCN(CC)CCN1CCNc2c3cc(OC)ccc3nc3c([N+](=O)[O-])ccc1c23 ? 3.12

----------
system: SNB-19 CNS; experiment: NCI tumour cell line growth inhibition, 48 h
observable: TGI

Example cases with answers are listed next.
molecule | TGI
CC(=O)Oc1cc(OC(C)=O)c2c(=O)c3ccccc3n(C)c2c1 | > 100 µM
Nc1nc(N)[n+]([O-])c(N)c1NCO | > 100 µM
C1=CN2C[n+]3cccc(OCc4ccccc4)c3N=C2C(OCc2ccccc2)=C1 | 27.2 µM
Cc1c(C(=O)CSc2nc3ccc([N+](=O)[O-])cc3[nH]2)c(=O)n(-c2ccccc2)n1C | > 100 µM
CCOC(=O)Cc1c(Cc2[nH]c(C(=O)OCc3ccccc3)c(CC(=O)OCC)c2CC(=O)OCC)[nH]c(C(=O)OCc2ccccc2)c1CC(=O)OCC | > 100 µM
CC1=C(C(=O)Nc2ccc([N+](=O)[O-])cc2)C(c2ccco2)C(C(=O)Nc2ccc([N+](=O)[O-])cc2)=C(C)N1 | > 100 µM

Please state TGI for every molecule in the list that follows.
1. NS(=O)(=O)c1ccc(NC(=O)c2cc([N+](=O)[O-])cc([N+](=O)[O-])c2)cc1
2. CN1CCN(c2nc3ccccc3nc2C(=O)c2ccc(Cl)cc2)CC1

> 100 µM
> 100 µM

Please state TGI for every molecule in the list that follows.
1. NC(N)=NS(=O)(=O)c1ccc(NC(=O)c2cccc3c(Nc4ccc(S(=O)(=O)N=C(N)N)cc4)c4ccc(Cl)cc4nc23)cc1
2. Cc1ccc(S(=O)(=O)N/N=C/C(Br)=C(/Br)C(=O)O)cc1
3. N#Cc1ncn(-c2ccccc2)c1N

1: > 100 µM; 2: 28.8 µM; 3: > 100 µM

Please state TGI for every molecule in the list that follows.
1. O=C1CC2CC=C[C@H]3c4cc5c(cc4C(=O)N1C23)OCO5 (some centres undefined)
2. CCOC(=O)C1C=C2O[C@@H]3OC4(CCCCC4)O[C@@H]3C2[C@H]2C(=O)C=CC(=O)[C@@]12C(=O)OC (some centres undefined)
3. CC1(C)N=C(N)N=C(N)N1c1cccc(/C=C/C=C/c2cccc([N+](=O)[O-])c2)c1
4. CC(Cc1ccc(Cl)cc1Cl)NO (centres undefined)
5. Nc1cccc2c1C(=O)N(C1CCC(=O)NC1=O)C2=O (centres undefined)

> 50 µM
22.9 µM
22.5 µM
> 100 µM
> 100 µM

Please state TGI for every molecule in the list that follows.
1. O=C1/C(=C\c2ccc([N+](=O)[O-])cc2)Sc2scc(-c3ccc(O)c(O)c3)[n+]21
2. OC1c2ccccc2[C@@H]2[C@H]1[C@@H](c1ccccc1)C1(Cc3ccccc3C1O)[C@H]2c1ccccc1 (some centres undefined)
3. CC(C)(C)c1cc(C(=O)/C=C/c2ccc(O)c(O)c2O)cc(C(C)(C)C)c1O

1. 74 µM
2. 26.5 µM
3. > 29.3 µM

----------
test system: MDA-MB-435; test: NCI tumour cell line growth inhibition, 48 h; in the data active means GI50 below about 0.43 µM; inactive means the rest
Outcome field: choose from active, inactive

Here's what some known entries look like.
item_smiles | answer_label
COc1cccc(NC(=O)c2sc3nc4c(cc3c2N)CCCC4)c1 | active
O=C(Nc1n[nH]c2nc(-c3ccco3)c(Br)cc12)C1CC1 | inactive
Nc1ccn(C=C=CCO)c(=O)n1 | inactive
O/N=C1\CCc2cc(-c3nc(C4CCNCC4)[nH]c3-c3ccncc3)ccc21 | inactive

Shift focus to the following entry.
Tell me the recorded outcome of this test for O=C(c1cccs1)c1c(C(F)(F)F)n([O-])c2ccc(C(F)(F)F)cc2[n+]1=O . inactive

----------
system: HCT-15 colon; test: NCI tumour cell line growth inhibition, 48 h
observable: TGI

Example cases with answers are listed next.
compound | observable | measured_result
COc1ccccc1/C=C1\Sc2scc(-c3cccc([N+](=O)[O-])c3)[n+]2C1=O | TGI | 5.92 µM
C[C@H](CCC1=NCCN1)[C@H]1CC[C@H]2[C@@H]3[C@H](O)C[C@@H]4C[C@H](O)CC[C@]4(C)[C@H]3CC[C@]12C | TGI | 30.1 µM
Nc1nc(N)[n+]([O-])c(N)c1NCO | TGI | > 100 µM

Please state TGI for every compound in the list that follows.
1. CC1(C)N=C(N)N=C(N)N1c1cccc(/C=C/C=C/c2cccc([N+](=O)[O-])c2)c1
2. Cc1cn(CC2=NCCN2)c(=O)[nH]c1=O
3. O=C(CCCN1CCC2(CC1)C(=O)NC(=O)N2c1ccccc1)c1ccc(F)cc1
4. Cc1c2c(c(C)n1-c1ccccc1)C(=O)N(CCSC(=N)N)C2=O

> 100 µM
> 100 µM
> 100 µM
> 100 µM

Please state TGI for every compound in the list that follows.
1. CC12CC3CC/C(=N\O)C(C1)C3(N1CCOCC1)C/C2=N/O (centres undefined)
2. Cc1ccc2c(c1)NC(c1ccc(C(=O)O)cc1)c1cccn1-2 (centres undefined)
3. NNC(=O)/C(=C/c1cccc([N+](=O)[O-])c1)NC(=O)c1ccccc1
4. CC(NC1=CC(=O)c2ncccc2C1=O)C(O)c1ccccc1 (centres undefined)
5. O=C(c1cccs1)c1c(C(F)(F)F)n([O-])c2ccc(C(F)(F)F)cc2[n+]1=O
6. Cc1cc(NC(=O)C2c3ccccc3C(=O)N(CC(C)C)C2c2cccs2)no1 (centres undefined)

["> 100 µM", "> 100 µM", "> 100 µM", "17.3 µM", "0.73 µM", "> 100 µM"]

Please state TGI for every compound in the list that follows.
1. CNNC1=NS(=O)(=O)c2cc(C)c(Cl)cc2S1
2. CC(Cl)(/C=C/Cl)C(Cl)/C=C/C(Cl)(CCl)CBr (centres undefined)
3. COC(=O)c1ccc2c(c1)CC1(C2)Cc2cc3c(c(C(=O)OC)c2C1)CCCC3 (centres undefined)
4. COc1ccc(/C=C2\CN(C(=O)CCN3CCC(=NO)CC3)C/C(=C\c3ccc(OC)cc3)C2=O)cc1

> 10 µM
4.24 µM
> 100 µM
5.56 µM

Please state TGI for every compound in the list that follows.
1. COC(=O)c1cnc(=O)n(C2CC(O)C(CO)O2)c1 (centres undefined)
2. O/N=C1/C(=C/c2ccc(F)cc2)CCCC1C(NO)c1ccc(F)cc1 (centres undefined)

1. > 100 µM
2. > 100 µM

----------
tested on: ACHN renal; test: NCI tumour cell line growth inhibition, 48 h
observable: TGI (µM)
One number for each entry, in µM.

compound | target_system | measured_result
Cc1cccc(/C=N/NC(=S)NCc2ccccn2)n1 | ACHN renal | 67.5
CC(=O)Oc1ccc(N2C(=O)C3c4[nH]c5ccccc5c4C4CCC(C(C)(C)C)CC4C3C2=O)cc1 (stereo not given) | ACHN renal | 12.2
COc1ccc(/C(=C/c2cc(OC)c(OC)c(OC)c2)[N+](=O)[O-])cc1 | ACHN renal | 2.88

With those in mind, consider the next compound.
Which TGI reading was recorded for the compound C1CCC([PH+](C2CCCCC2)C2CCCCC2[PH+](C2CCCCC2)C2CCCCC2)CC1.[Au].[CH-]1CCCCC1C1CCCC[N-]1 (stereo not given) ? 2.17
